Tested on: HSC-4
PROTOCOL_DETAILS: Cytotoxicity against human HSC4 cells after 48 hrs by MTT assay
Format: functional
PROTOCOL_CONDITIONS: HSC-4, 48 h
PROPERTY_LABEL: CC50 (µM)

MOLECULE	MEASURED
O=C(O[C@@H]1O[C@@H]2COC(=O)c3cc(O)c(O)c(O)c3-c3c(cc(O)c(O)c3O)C(=O)O[C@H]2[C@H](OC(=O)c2cc(O)c(O)c(O)c2)[C@H]1OC(=O)c1cc(O)c(O)c(O)c1Oc1cc2c(c(O)c1O)Oc1cc(cc(O)c1O)C(=O)O[C@@H]1O[C@@H]3COC(=O)c4cc(O)c(O)c(O)c4-c4c(cc(O)c(O)c4O)C(=O)O[C@H]3[C@H](OC(=O)c3cc(O)c(O)c(O)c3)[C@H]1OC2=O)c1cc(O)c(O)c(O)c1 [HIRTELLIN B]	74
O=C1O[C@@H]2O[C@@H]3COC(=O)c4cc(O)c(O)c(O)c4-c4c(cc(O)c(O)c4O)C(=O)O[C@H]3[C@H](OC(=O)c3cc(O)c(O)c(O)c3)[C@H]2OC(=O)c2cc(Oc3c(C(=O)O)cc(O)c(O)c3O)c(O)c(O)c2Oc2cc1cc(O)c2O [NILOTININ M4]	62
O=C(O)c1cc(O)c(O)c(Oc2c(C(=O)O[C@H]3[C@H](OC(=O)c4cc(O)c(O)c(O)c4)O[C@@H]4COC(=O)c5cc(O)c(O)c(O)c5-c5c(cc(O)c(O)c5O)C(=O)O[C@H]4[C@@H]3OC(=O)c3cc(O)c(O)c(O)c3O)cc(O)c(O)c2O)c1 [REMURIN A]	48
